Tested on: Mus musculus
protocol_summary: Antinociceptive effect in mouse at 10 mg/kg by tail flick test
Type: functional
Entries and their Activity
Numeric only. Scale: %

Nc1cc2c(cn1)C1CC3CCC1N3C2 (stereo unspecified)
2
Cc1nc(Cl)ccc1C1CC2CCC1N2 (stereo unspecified)
1
Clc1ccc2c(n1)CN1C3CCC1C2C3 (stereo unspecified)
3
Clc1cc2c(cn1)C1CC3CCC1N3C2 (stereo unspecified)
2
Cc1cc(Cl)ncc1C1CC2CCC1N2 (stereo unspecified)
4

Activity in this record for Nc1ccc2c(n1)CN1C3CCC1C2C3 (stereo unspecified) : 4

###

Entries and their pKi
assay_target: Neuronal acetylcholine receptor; alpha4/beta2 (Homo sapiens, UniProt P17787+P43681)
Sequence (P17787 whole entry): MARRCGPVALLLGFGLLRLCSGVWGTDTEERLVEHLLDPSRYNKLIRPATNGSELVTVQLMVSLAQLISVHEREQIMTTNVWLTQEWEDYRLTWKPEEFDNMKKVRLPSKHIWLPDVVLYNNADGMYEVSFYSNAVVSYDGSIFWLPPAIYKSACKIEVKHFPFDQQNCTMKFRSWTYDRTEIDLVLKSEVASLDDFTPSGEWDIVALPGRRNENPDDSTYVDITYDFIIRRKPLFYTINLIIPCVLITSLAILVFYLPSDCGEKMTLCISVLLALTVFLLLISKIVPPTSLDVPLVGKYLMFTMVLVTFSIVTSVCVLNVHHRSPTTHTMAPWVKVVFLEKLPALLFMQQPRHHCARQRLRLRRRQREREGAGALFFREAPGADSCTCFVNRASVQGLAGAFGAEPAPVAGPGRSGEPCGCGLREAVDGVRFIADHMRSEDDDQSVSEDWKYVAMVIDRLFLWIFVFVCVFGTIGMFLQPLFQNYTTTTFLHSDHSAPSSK
Sequence (P43681 whole entry): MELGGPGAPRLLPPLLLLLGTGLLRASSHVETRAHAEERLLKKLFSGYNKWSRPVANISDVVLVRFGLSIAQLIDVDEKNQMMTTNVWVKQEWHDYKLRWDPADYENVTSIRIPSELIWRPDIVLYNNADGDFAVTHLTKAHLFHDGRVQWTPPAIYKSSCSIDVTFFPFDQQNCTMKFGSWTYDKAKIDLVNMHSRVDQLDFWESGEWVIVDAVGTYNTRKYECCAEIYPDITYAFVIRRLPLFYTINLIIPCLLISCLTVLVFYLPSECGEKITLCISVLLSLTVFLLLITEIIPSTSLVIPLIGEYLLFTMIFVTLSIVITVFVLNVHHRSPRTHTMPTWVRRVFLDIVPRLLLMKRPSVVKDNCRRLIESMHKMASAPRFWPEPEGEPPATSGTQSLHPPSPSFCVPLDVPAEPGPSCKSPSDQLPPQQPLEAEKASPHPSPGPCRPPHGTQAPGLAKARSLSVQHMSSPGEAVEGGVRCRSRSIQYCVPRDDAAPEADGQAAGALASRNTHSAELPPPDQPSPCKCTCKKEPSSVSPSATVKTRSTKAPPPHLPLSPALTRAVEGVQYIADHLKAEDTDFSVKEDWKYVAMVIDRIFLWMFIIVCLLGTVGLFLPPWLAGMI
protocol_summary: Displacement of [3H]epibatidine from alpha-4-beta-2 nAChR
# pKi: negative log10 of molar concentration; output just the value

Examples with answers:
Nc1ccc2c(n1)CN1C3CCC1C2C3 (configuration not stated)
5.13
Nc1cc2c(cn1)C1CC3CCC1N3C2 (configuration not stated)
4.91
Clc1cc2c(cn1)C1CC3CCC1N3C2 (configuration not stated)
5.48
Clc1ccc(C2CC3NC2c2ccccc23)cn1 (configuration not stated)
7.19
CN1C2CCC1C(c1ccc(Cl)nc1)C2 (configuration not stated)
10.42

pKi in this record for Cc1nc(Cl)ccc1C1CC2CCC1N2 (configuration not stated) : 6.59

pKi in this record for Fc1ncc(C2CC3NC2c2ccccc23)cc1-c1ccccc1 (configuration not stated) : 6.89

###

Entries and their Activity
assay_target: Neuronal acetylcholine receptor subunit alpha-7 (Homo sapiens) (UniProt P36544)
Sequence (P36544 whole entry): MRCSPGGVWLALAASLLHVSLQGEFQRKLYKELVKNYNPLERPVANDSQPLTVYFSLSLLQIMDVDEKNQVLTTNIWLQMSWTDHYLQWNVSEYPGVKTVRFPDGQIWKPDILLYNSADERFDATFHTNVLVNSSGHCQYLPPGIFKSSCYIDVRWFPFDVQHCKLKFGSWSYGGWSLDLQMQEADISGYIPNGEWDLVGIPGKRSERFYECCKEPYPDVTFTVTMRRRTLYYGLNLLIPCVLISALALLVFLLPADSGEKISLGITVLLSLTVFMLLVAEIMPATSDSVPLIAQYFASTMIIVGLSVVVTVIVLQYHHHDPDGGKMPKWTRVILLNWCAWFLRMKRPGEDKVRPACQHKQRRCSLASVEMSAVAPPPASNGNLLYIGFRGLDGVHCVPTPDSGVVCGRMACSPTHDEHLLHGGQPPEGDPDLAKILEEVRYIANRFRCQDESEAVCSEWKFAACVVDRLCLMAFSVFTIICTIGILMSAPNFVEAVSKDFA
protocol_summary: Displacement of [125I]iodoMLA from alpha-7 nAChR at 50 nM
Numeric only. Scale: %

C1=CC2NC1c1ccncc12 (stereo not given)
0
Clc1ccc(C2CC3NC2c2ccccc23)cn1 (stereo not given)
0
c1cc2c(cn1)C1CCC2N1 (stereo not given)
0
c1cnc2c(c1)C1CCC2N1 (stereo not given)
0

Activity in this record for Fc1ncc(C2CC3NC2c2ccccc23)cc1-c1ccccc1 (stereo not given) : 0

The measurements presented in this section are drawn from ChEMBL document CHEMBL1138324.
